# credit: patent US10611740B2

Form field: pEC50 (one value per entry).
target: Gal4-RORγ-LBD (Homo sapiens); construct: expressed in transfected cells; host or cells: HEK-293 cells (pcDNA3.1neo plasmid); assay: Gal4-RORγ Luciferase Reporter Assay in HEK-293T Cells; format: cell-based; settings: HEK-293 cells, luciferase reporter, with 2 μM ursolic acid
pEC50: −log10 of the molar value.

{"molecule": "COc1cc(F)cc(-c2ccc3c(c2)N(S(=O)(=O)c2cccc(C(F)(F)F)c2)C[C@H](CNC(=O)C(C)(C)O)O3)c1F [Compound 30L]", "measured_result": "> 6.30"}
{"molecule": "O=C(O)C1CCN(C(=O)CC[C@H]2CN(S(=O)(=O)c3cccc(C(F)(F)F)c3)c3cc(-c4cccc(F)c4F)cc(F)c3O2)CC1 [Compound 23I]", "measured_result": "> 6.30"}
{"molecule": "O=C(O)CC[C@H]1CN(S(=O)(=O)c2cccc(C(F)(F)F)c2)c2cc(-c3cc(F)cc(F)c3F)ccc2O1 [Compound 4AK]", "measured_result": "> 6.30"}
{"molecule": "O=C(O)CC[C@H]1CN(S(=O)(=O)c2cccc(C(F)(F)F)c2)c2cc(-c3cccnc3-c3ccccc3)ccc2O1 [Compound 4AD]", "measured_result": "< 5.00"}
{"molecule": "O=C(O)CC[C@H]1CN(S(=O)(=O)c2cccc(C(F)(F)F)c2)c2cc(-c3ccc(F)cc3Cl)ccc2O1 [Compound 2W]", "measured_result": "5.30 to 6.30"}
{"molecule": "COc1ccc(-c2ccc3c(c2)N(S(=O)(=O)c2cccc(C(F)(F)F)c2)C[C@H](CCC(=O)O)O3)cc1 [Compound 2U]", "measured_result": "5.30 to 6.30"}
{"molecule": "COc1cccc(-c2ccc3c(c2)N(S(=O)(=O)c2cccc(C(F)(F)F)c2)C[C@H](CCc2n[nH]c(=O)o2)O3)c1 [Compound 28E]", "measured_result": "> 6.30"}
{"molecule": "Cn1ccc(-c2ccc3c(c2)N(S(=O)(=O)c2cccc(C(F)(F)F)c2)C[C@H](CCC(=O)O)O3)n1 [Compound 4W]", "measured_result": "5.30 to 6.30"}
{"molecule": "O=C(NC[C@H]1CN(S(=O)(=O)c2cccc(C(F)(F)F)c2)c2cc(-c3cc(F)ccc3F)ccc2O1)c1cnco1 [Compound 30AK]", "measured_result": "5.30 to 6.30"}
{"molecule": "O=C(O)CC[C@H]1CN(S(=O)(=O)c2cccc(C(F)(F)F)c2)c2cc(-c3ccc(F)c(C(F)(F)F)c3)ccc2O1 [Compound 2AF]", "measured_result": "< 5.00"}

Specify measured pEC50 for O=C(O)CC[C@H]1CN(S(=O)(=O)c2cccc(C(F)(F)F)c2)c2cc(-c3c(F)cccc3Cl)ccc2O1 [Compound 2AG] . > 6.30

Specify measured pEC50 for O=C(O)CC[C@H]1CN(S(=O)(=O)c2cc(C(F)(F)F)cnc2OCCO)c2cc(-c3cccc(Cl)c3)ccc2O1 [Compound 6G] . 5.30 to 6.30

Specify measured pEC50 for CN(C)c1cccc(-c2ccc3c(c2)N(S(=O)(=O)c2cccc(C(F)(F)F)c2)C[C@H](CCNC(=O)C(C)(C)O)O3)n1 [Compound 30A] . > 6.30

---

Form field: EC50 (one value per entry).
target: Gal4-RORγ-LBD (Homo sapiens, UniProt P51449); construct: expressed in transfected cells; host or cells: HEK-293 cells (pcDNA3.1neo plasmid); assay: Gal4-RORγ Luciferase Reporter Assay in HEK-293T Cells; assay type: cell-based; conditions: HEK-293 cells, luciferase reporter, with 2 μM ursolic acid
Sequence (P51449 269-508 limits assumed): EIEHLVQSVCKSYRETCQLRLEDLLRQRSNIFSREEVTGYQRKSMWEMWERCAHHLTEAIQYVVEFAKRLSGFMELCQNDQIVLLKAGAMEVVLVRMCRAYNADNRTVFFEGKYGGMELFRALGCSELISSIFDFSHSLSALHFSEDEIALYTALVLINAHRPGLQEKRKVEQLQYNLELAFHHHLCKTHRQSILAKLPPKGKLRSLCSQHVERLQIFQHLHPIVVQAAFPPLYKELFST

Answered cases to consult:
{"molecule": "O=C(O)CC[C@H]1CN(S(=O)(=O)c2cccc(C(F)(F)F)c2)c2cc(-c3cccc4nccn34)ccc2O1", "target_of_assay": "Gal4-RORγ-LBD (Homo sapiens, UniProt P51449)", "measured_result": "5000 to 10000 nM"}
{"molecule": "CC(C)c1cccc(S(=O)(=O)N2C[C@H](CNC(=O)C(C)(C)O)Oc3ccc(-c4cccc(N(C)C)n4)cc32)c1 [Compound 30J]", "target_of_assay": "Gal4-RORγ-LBD (Homo sapiens, UniProt P51449)", "measured_result": "< 500 nM"}
{"molecule": "COc1cc(-c2ccc3c(c2)N(S(=O)(=O)c2cccc(C(F)(F)F)c2)C[C@H](CCc2n[nH]c(=O)o2)O3)nc(N(C)C)c1 [Compound 28H]", "target_of_assay": "Gal4-RORγ-LBD (Homo sapiens, UniProt P51449)", "measured_result": "< 500 nM"}
{"molecule": "CC(C)(C[C@H]1CN(S(=O)(=O)c2cccc(C(F)(F)F)c2)c2cc(-c3cccc(C(F)(F)F)n3)ccc2O1)C(=O)O [Compound 32E]", "target_of_assay": "Gal4-RORγ-LBD (Homo sapiens, UniProt P51449)", "measured_result": "< 500 nM"}
{"molecule": "COc1cc(S(=O)(=O)N2C[C@H](CNS(=O)(=O)N(C)C)Oc3ccc(-c4cc(F)ccc4F)cc32)ccc1F [Compound 45C]", "target_of_assay": "Gal4-RORγ-LBD (Homo sapiens, UniProt P51449)", "measured_result": "< 500 nM"}
{"molecule": "Cc1cccc(-c2ccc3c(c2)N(S(=O)(=O)c2cccc(C(F)(F)F)c2)C[C@H](CCC(=O)O)O3)n1", "target_of_assay": "Gal4-RORγ-LBD (Homo sapiens, UniProt P51449)", "measured_result": "500 to 5000 nM"}
{"molecule": "O=C(CC[C@H]1CN(S(=O)(=O)c2cccc(C(F)(F)F)c2)c2cc(-c3ccc(F)cc3F)ccc2O1)NS(=O)(=O)c1ccccc1 [Compound 43A]", "target_of_assay": "Gal4-RORγ-LBD (Homo sapiens, UniProt P51449)", "measured_result": "500 to 5000 nM"}
{"molecule": "O=C(O)CC[C@H]1CN(S(=O)(=O)c2cccc(C(F)(F)F)c2)c2cc(-c3cccnc3Cl)ccc2O1", "target_of_assay": "Gal4-RORγ-LBD (Homo sapiens, UniProt P51449)", "measured_result": "500 to 5000 nM"}

Quote Gal4-RORγ-LBD (Homo sapiens, UniProt P51449) EC50 for entry Cc1c(F)cc(-c2ccc3c(c2)N(S(=O)(=O)c2cccc(C(F)(F)F)c2)C[C@H](CC(C)C(=O)O)O3)c(Cl)c1F (stereo partly shown) [Compound 46A] . 500 to 5000 nM

Quote Gal4-RORγ-LBD (Homo sapiens, UniProt P51449) EC50 for entry O=c1[nH]nc(CC[C@H]2CN(S(=O)(=O)c3cccc(C(F)(F)F)c3)c3cc(-c4cncc(C(F)(F)F)c4)ccc3O2)o1 [Compound 28C] . < 500 nM

Quote Gal4-RORγ-LBD (Homo sapiens, UniProt P51449) EC50 for entry CC(C)(C[C@H]1CN(S(=O)(=O)c2cccc(C(F)(F)F)c2)c2cc(-c3cccc(F)c3F)ccc2O1)C(=O)O [Compound 32K] . < 500 nM

Quote Gal4-RORγ-LBD (Homo sapiens, UniProt P51449) EC50 for entry O=C(O)CC[C@H]1CN(S(=O)(=O)c2cccc(C(F)(F)F)c2)c2cc(-c3cc(F)cc(F)c3Cl)c(Cl)cc2O1 [Compound 22G] . < 500 nM

Quote Gal4-RORγ-LBD (Homo sapiens, UniProt P51449) EC50 for entry COc1cc(S(=O)(=O)N2C[C@H](CNC(=O)[C@@](C)(O)C(F)(F)F)Oc3ccc(-c4cc(F)ccc4F)cc32)ccc1F [Compound 30X] . < 500 nM
